Reference source: ChEMBL document CHEMBL1201861

Tested on: LOX IMVI
experiment notes: cells
Format: functional, cell-based, Homo sapiens
experimental conditions: lox imvi
Description: SANGER: Inhibition of human LOXIMVI cell growth in a cell viability assay.
readout label: IC50 (nM)

>>> df
   sequence_string  reported_value
0        BLEOMYCIN             452

* * *

Reported IC50 values for the following molecules.
Tested on: CTV-1;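 note: growth inhibition of the cell line, read out with a cell viability assay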
experiment notes: cells
Assay type: functional, cell-based, Homo sapiens
experimental conditions: Homo sapiens, CTV-1
Description: SANGER: Inhibition of human CTV-1 cell growth in a cell viability assay.
Structures can show the parent of a compound that is named as a salt.

molecule	qualifying sign	IC50 (µM)
COc1cc2c(Nc3ccc(NC(=O)c4ccccc4)cc3)ncnc2cc1OCCCN1CCOCC1	=	2.07
CC(=O)O[C@H]1C(=O)[C@@]2(C)[C@H]([C@H](OC(=O)c3ccccc3)[C@]3(O)C[C@H](OC(=O)[C@H](O)[C@@H](NC(=O)c4ccccc4)c4ccccc4)C(C)=C1C3(C)C)[C@]1(OC(C)=O)CO[C@@H]1C[C@@H]2O [PACLITAXEL]	=	0.0148
CN(C)C(=N)NC(=N)N [METFORMIN]	=	1970
CO[C@H]1C[C@@H]2CC[C@@H](C)[C@@](O)(O2)C(=O)C(=O)N2CCCC[C@H]2C(=O)O[C@H]([C@H](C)C[C@@H]2CC[C@@H](OC(=O)C(C)(CO)CO)[C@H](OC)C2)CC(=O)[C@H](C)/C=C(\C)[C@@H](O)[C@@H](OC)C(=O)[C@H](C)C[C@H](C)/C=C/C=C/C=C/1C [TEMSIROLIMUS]	>	0.2
COC1=CC(c2cc3ccccc3[nH]2)=N/C1=C\c1[nH]c(C)cc1C [OBATOCLAX MESYLATE]	=	0.0752

* * *

Test system: LB771-HNC
experiment notes: cells
Assay type: functional, cell-based, Homo sapiens
experimental conditions: lb771-hnc
Description: SANGER: Inhibition of human LB771-HNC cell growth in a cell viability assay.
pIC50: −log10 of the molar value.
Recorded pIC50 by entry
readout label: pIC50

In [3]: df
Out[3]:
   sequence_string  study_target  readout_label  reported_value
0        CISPLATIN     LB771-HNC          pIC50            4.05
1        BLEOMYCIN     LB771-HNC          pIC50            3.68

* * *

Tested on: GB-1;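 note: growth of GB-1 cells judged by a viability assay, IC50 marks the concentration inhibiting growth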
experiment notes: cells
Format: functional, cell-based, Homo sapiens
experimental conditions: Homo sapiens, GB-1
Description: SANGER: Inhibition of human GB-1 cell growth in a cell viability assay.
compounds and their reported IC50

compound	units of measure	qualifying sign	IC50
COc1cc(N2CCN(C)CC2)ccc1Nc1ncc2c(n1)N(C)c1ccccc1C(=O)N2C	µM	>	8
Cc1cn(-c2cc(NC(=O)c3ccc(C)c(Nc4nccc(-c5cccnc5)n4)c3)cc(C(F)(F)F)c2)cn1	µM	>	2
CC(=O)O[C@H]1C(=O)[C@@]2(C)[C@H]([C@H](OC(=O)c3ccccc3)[C@]3(O)C[C@H](OC(=O)[C@H](O)[C@@H](NC(=O)c4ccccc4)c4ccccc4)C(C)=C1C3(C)C)[C@]1(OC(C)=O)CO[C@@H]1C[C@@H]2O	µM	=	0.036
COc1cc2ncn(-c3cc(OCc4ccccc4S(C)(=O)=O)c(C#N)s3)c2cc1OC [GSK-319347A]	µM	>	5
OCCCNc1cc(-c2ccnc(Nc3cccc(Cl)c3)n2)ccn1	µM	=	0.038
Cn1cnc2c(F)c(Nc3ccc(Br)cc3Cl)c(C(=O)NOCCO)cc21	µM	>	4
O=C(O)c1ccc(-c2c[nH]c3ncc(-c4ccccc4)cc23)cc1C1CCCC1	µM	=	5.96

* * *

Recorded pIC50, one value per entry.
Tested on: COLO-678
experiment notes: cells
Format: functional, cell-based, Homo sapiens
experimental conditions: Homo sapiens, COLO-678
Description: SANGER: Inhibition of human COLO-678 cell growth in a cell viability assay.
pIC50: −log10 of the molar value.
readout label: pIC50

In [3]: df
Out[3]:
                                   compound  reported_value
0  N#Cc1c(O)c2c(-c3ccc(-c4ccccc4O)cc3)csc2[nH]c1=O          < 5.99
1                         CN(C)C(=N)NC(=N)N          < 1.70
2  CC(C)c1ccccc1Cc1cc(C(=O)Nc2ccc(S(=O)(=O)c3ccccc3C(C)(C)C)cc2)c(O)c(O)c1O            5.48
3  O=C(O)c1ccc(-c2c[nH]c3ncc(-c4ccccc4)cc23)cc1C1CCCC1          < 4.80
4  Nc1ccn([C@@H]2O[C@H](CO)[C@@H](O)C2(F)F)c(=O)n1          < 5.99
5  Cn1cnc2c(F)c(Nc3ccc(Br)cc3Cl)c(C(=O)NOCCO)cc21            5.79
6  CC(C)CCN1c2nc(Nc3cc(F)c(O)c(F)c3)ncc2N(C)C(=O)C1C (stereo not drawn)          < 5.30
7  CC1(C)CNc2cc(NC(=O)c3cccnc3NCc3ccncc3)ccc21          < 5.70

* * *

Tested on: NCI-H1694;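 note: cell viability assay measuring inhibition of growth in human NCI-H1694 cells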
experiment notes: cells
Format: functional, cell-based, Homo sapiens
experimental conditions: Homo sapiens, NCI-H1694
Description: SANGER: Inhibition of human NCI-H1694 cell growth in a cell viability assay.
Counter-ions that a name gives are not always drawn.
IC50 for assorted compounds
readout label: IC50 (µM)

compound	qualifying sign	reported value
CCN(CC)CCNC(=O)c1c(C)[nH]c(/C=C2\C(=O)Nc3ccc(F)cc32)c1C [SUNITINIB]	>	8
COc1cccc2c1C(=O)c1c(O)c3c(c(O)c1C2=O)C[C@@](O)(C(=O)CO)C[C@@H]3O[C@H]1C[C@H](N)[C@H](O)[C@H](C)O1 [DOXORUBICIN]	=	0.2
COc1cc2ncn(-c3cc(OCc4ccccc4C(F)(F)F)c(C(N)=O)s3)c2cc1OC [GW843682X]	=	0.042
Oc1ccc2ccccc2c1SSc1c(O)ccc2ccccc12	>	32
O=C(O)c1ccc(-c2c[nH]c3ncc(-c4ccccc4)cc23)cc1C1CCCC1 [GSK-650394]	>	16
COC1=CC(c2cc3ccccc3[nH]2)=N/C1=C\c1[nH]c(C)cc1C [OBATOCLAX MESYLATE]	=	0.919
CC(=O)O[C@H]1C(=O)[C@@]2(C)[C@H]([C@H](OC(=O)c3ccccc3)[C@]3(O)C[C@H](OC(=O)[C@H](O)[C@@H](NC(=O)c4ccccc4)c4ccccc4)C(C)=C1C3(C)C)[C@]1(OC(C)=O)CO[C@@H]1C[C@@H]2O [PACLITAXEL]	>	0.102

* * *

Tested on: DV-90;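 note: Read-out is a viability assay, with IC50 reflecting the drop in DV-90 cell growth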
experiment notes: cells
Assay type: functional, cell-based, Homo sapiens
experimental conditions: Homo sapiens, DV-90
Description: SANGER: Inhibition of human DV-90 cell growth in a cell viability assay.
Recorded measurements of IC50, one per entry

smiles repr	study target	IC50
CCC/C=C/C=C/C(=O)O[C@H]1/C(=C/C(=O)OC)C[C@H]2C[C@H]([C@@H](C)O)OC(=O)C[C@H](O)C[C@@H]3C[C@H](OC(C)=O)C(C)(C)[C@](O)(C[C@@H]4C/C(=C/C(=O)OC)C[C@H](/C=C/C(C)(C)[C@]1(O)O2)O4)O3	DV-90	> 8 nM
COc1cccc2c1C(=O)c1c(O)c3c(c(O)c1C2=O)C[C@@](O)(C(=O)CO)C[C@@H]3O[C@H]1C[C@H](N)[C@H](O)[C@H](C)O1	DV-90	329 nM
Nc1ccn([C@@H]2O[C@H](CO)[C@@H](O)C2(F)F)c(=O)n1	DV-90	> 1020 nM

* * *

Test system: RPMI-8866
experiment notes: cells
Assay type: functional, cell-based, Homo sapiens
experimental conditions: Homo sapiens, RPMI-8866
Description: SANGER: Inhibition of human RPMI-8866 cell growth in a cell viability assay.
Counter-ions that a name gives are not always drawn.

compound	IC50
COC1=CC(c2cc3ccccc3[nH]2)=N/C1=C\c1[nH]c(C)cc1C [OBATOCLAX MESYLATE]	133 nM
CCN(CC)CCCCNc1ncc2cc(-c3cc(OC)cc(OC)c3)c(NC(=O)NC(C)(C)C)nc2n1 [PD-173074]	> 2000 nM
C=C(c1ccc(C(=O)O)cc1)c1cc2c(cc1C)C(C)(C)CCC2(C)C [BEXAROTENE]	> 8000 nM
CO[C@H]1C[C@@H]2CC[C@@H](C)[C@@](O)(O2)C(=O)C(=O)N2CCCC[C@H]2C(=O)O[C@H]([C@H](C)C[C@@H]2CC[C@@H](OC(=O)C(C)(CO)CO)[C@H](OC)C2)CC(=O)[C@H](C)/C=C(\C)[C@@H](O)[C@@H](OC)C(=O)[C@H](C)C[C@H](C)/C=C/C=C/C=C/1C [TEMSIROLIMUS]	31.4 nM
Nc1cccc2c1CN(C1CCC(=O)NC1=O)C2=O (configuration not stated) [LENALIDOMIDE]	> 5000 nM
CS(=O)(=O)c1ccc(C(=O)Nc2ccc(Cl)c(-c3ccccn3)c2)c(Cl)c1 [VISMODEGIB]	> 10000 nM
N[C@@H](CSC(c1ccccc1)(c1ccccc1)c1ccccc1)C(=O)O [S-TRITYL-L-CYSTEINE]	> 5120 nM

* * *

IC50 overview
Test system: CHL-1
experiment notes: cells
Format: functional, cell-based, Homo sapiens
experimental conditions: Homo sapiens, CHL-1
Description: SANGER: Inhibition of human CHL-1 cell growth in a cell viability assay.
readout label: IC50 (nM)

compound	study target	qualifying sign	reported value
CO[C@H]1C[C@@H]2CC[C@@H](C)[C@@](O)(O2)C(=O)C(=O)N2CCCC[C@H]2C(=O)O[C@H]([C@H](C)C[C@@H]2CC[C@@H](OC(=O)C(C)(CO)CO)[C@H](OC)C2)CC(=O)[C@H](C)/C=C(\C)[C@@H](O)[C@@H](OC)C(=O)[C@H](C)C[C@H](C)/C=C/C=C/C=C/1C [TEMSIROLIMUS]	CHL-1	=	5.86
COc1cccc2c1C(=O)c1c(O)c3c(c(O)c1C2=O)C[C@@](O)(C(=O)CO)C[C@@H]3O[C@H]1C[C@H](N)[C@H](O)[C@H](C)O1 [DOXORUBICIN]	CHL-1	=	37.7
CS(=O)(=O)c1ccc(C(=O)Nc2ccc(Cl)c(-c3ccccn3)c2)c(Cl)c1 [VISMODEGIB]	CHL-1	>	10000
CCC/C=C/C=C/C(=O)O[C@H]1/C(=C/C(=O)OC)C[C@H]2C[C@H]([C@@H](C)O)OC(=O)C[C@H](O)C[C@@H]3C[C@H](OC(C)=O)C(C)(C)[C@](O)(C[C@@H]4C/C(=C/C(=O)OC)C[C@H](/C=C/C(C)(C)[C@]1(O)O2)O4)O3 [BRYOSTATIN 1]	CHL-1	>	8
